Molecular target: T1, Fusion protein of LAG-3 extracellular region and mIgG2a Fc (human)
T1 construct: Limits of the signal peptide are marked only by lost underlining; also called LAG-3-mFc; LAG-3-mFc fusion protein
T1 chain: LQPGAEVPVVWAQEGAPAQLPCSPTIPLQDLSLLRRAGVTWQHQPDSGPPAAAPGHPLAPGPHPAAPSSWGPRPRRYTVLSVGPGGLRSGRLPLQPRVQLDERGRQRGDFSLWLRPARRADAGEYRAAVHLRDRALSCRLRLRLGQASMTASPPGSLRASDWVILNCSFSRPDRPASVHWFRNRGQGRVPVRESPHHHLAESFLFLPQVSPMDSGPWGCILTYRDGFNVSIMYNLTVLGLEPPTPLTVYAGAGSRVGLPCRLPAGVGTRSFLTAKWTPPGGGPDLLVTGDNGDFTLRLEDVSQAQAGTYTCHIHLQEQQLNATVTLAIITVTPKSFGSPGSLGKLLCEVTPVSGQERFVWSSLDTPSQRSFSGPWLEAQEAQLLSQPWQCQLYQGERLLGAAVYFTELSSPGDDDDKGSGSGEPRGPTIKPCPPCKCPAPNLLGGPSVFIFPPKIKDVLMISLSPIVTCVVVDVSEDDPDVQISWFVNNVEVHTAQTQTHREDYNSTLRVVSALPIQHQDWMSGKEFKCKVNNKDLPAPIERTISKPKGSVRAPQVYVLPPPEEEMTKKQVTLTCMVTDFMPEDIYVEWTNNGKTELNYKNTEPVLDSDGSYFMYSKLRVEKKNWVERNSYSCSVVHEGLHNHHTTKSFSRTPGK
Test: ELISA, LAG-3-mFc captured by anti-mouse Fc on plate (which fusion: inferred)
Source text: The binding ability of anti-LAG-3 antibody to human LAG-3 protein was detected by ELISA assay. LAG-3 fusion protein with Fc or mFc tag was immobilized into 96-well microtiter plate by binding to anti-Fc or anti-mFc antibody coated on the microtiter plate, the strength of the signal after the addition of the antibody was used to determine the binding activity of the antibody to LAG-3, the specific experimental method is as follows. […]
MEASURE: EC50 (nM)
Numbers only here, please. The scale is nM.

{"columns": ["BINDER", "EC50 [nM]"],
 "data": [
  ["Hu303-011 (antibody, human IgG4 S228P, kappa, V domains shown, Humanized mAb303) VH: QVQLVQSGAEVKKPGASVKVSCKASGYTFTDYYMNWVRQAPGQRLEWMGVINPYNGDTAYNQKFKGRVTITVDKSASTAYMELSSLRSEDTAVYYCTRDDGYYDYYFDVWGQGTTVTVSS VL: DIQMTQSPSSLSASVGDRVTITCRASQDIGSRLNWYQQKPGKAPKRLIYATSTLDSGVPKRFSGSRSGTDFTLTISSLQPEDFATYYCLQLASSPPTFGGGTKVEIKR", 0.314],
  ["Hu229-019 (antibody, human IgG4 S228P, kappa, V domains shown, Humanized mAb229) VH: QVQLVQSGSELKKPGASVKVSCKASGYTFTTSGMSWVKQAPGQGLKWMGWINTYSGVPTYADDFKGRFVFSLDTSVSTAYLQISSLKAEDTATYFCARDNYDARDVYYYAMDYWGQGTTVTVSS VL: DIQMTQSPSSLSASVGDRVTITCRASENIYSNLAWYQQKPGKSPKLLVYAATNLADGVPSRFSGSGSGTQYTLTISSLQPEDFATYYCQHFWITPWTFGGGTKVEIKR", 0.068]
]}

# context switch: different binder, same EC50
For this binder ( Hu303-007 (antibody, human IgG4 S228P, kappa, V domains shown, Humanized mAb303) VH: QVQLVQSGAEVKKPGASVKVSCKASGYTFTDYYMNWVRQAPGQRLEWMGVINPYNGDTAYNQKFKGRVTITRDTSASTAYMELSSLRSEDTAVYYCARDDGYYDYYFDVWGQGTTVTVSS VL: DIQMTQSPSSLSASVGDRVTITCRASQDIGSRLNWLQQKPGKAFKRLIYATSTLDSGVPKRFSGSRSGTDFTLTISSLQPEDFATYYCLQLASSPPTFGGGTKVEIKR ), measured EC50 is 0.135
